Molecular target: BACE1 (Homo sapiens, UniProt P56817)
Construct: endogenous in cells; host or cells: HEK293 APP cells
Sequence (P56817 46-501): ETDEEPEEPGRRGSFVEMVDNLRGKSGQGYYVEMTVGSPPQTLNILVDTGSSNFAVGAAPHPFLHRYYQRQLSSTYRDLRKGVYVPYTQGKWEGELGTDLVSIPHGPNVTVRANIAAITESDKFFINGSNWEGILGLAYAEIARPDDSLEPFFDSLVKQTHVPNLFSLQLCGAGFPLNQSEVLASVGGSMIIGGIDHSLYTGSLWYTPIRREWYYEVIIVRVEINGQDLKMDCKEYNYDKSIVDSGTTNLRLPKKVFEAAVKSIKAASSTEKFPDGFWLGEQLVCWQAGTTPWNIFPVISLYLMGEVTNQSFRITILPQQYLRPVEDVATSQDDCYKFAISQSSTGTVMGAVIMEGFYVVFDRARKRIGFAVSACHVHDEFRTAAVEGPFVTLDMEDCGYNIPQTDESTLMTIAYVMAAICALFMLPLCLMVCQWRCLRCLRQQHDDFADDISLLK
Experiment: Cellular Aβ-lowering assay (Abeta 40 AlphaLISA, HEK293 APP cells)
Format: cell-based
Settings: 18-20 hrs incubation, Aβ 40 in culture supernatants, read-out: BACE1 cell act. Aβ40 IC50
# pIC50 listing for each entry below
Expect pIC50 as a plain number equal to -log10 of the molar concentration.

CC1(C)C(N)=N[C@](C)(c2cc(NC(=O)c3ncc(C#N)cc3Cl)ccc2F)[C@@H]2CCN=[S@@]21=O = 9.00
CCOc1cnc(C(=O)Nc2ccc(F)c([C@@]3(C)N=C(N)C(C)(C)[S@@]4(=O)=NCC[C@@H]34)c2)cn1 [Example 27AB] = 9.40
COc1cnc(C(=O)Nc2ccc(F)c([C@@]3(C)N=C(N)C(C)(C)[S@@]4(=O)=NCC[C@@H]34)c2)c(C)c1 [Example 26AB] = 9.22
CC1(C)C(N)=N[C@](C)(c2cc(NC(=O)c3ncc(C(F)(F)F)cc3Cl)ccc2F)[C@@H]2CCN=[S@@]21=O = 9.52
CC1(C)C(N)=N[C@](C)(c2cc(NC(=O)c3ncc(F)cc3F)ccc2F)[C@@H]2CCN=[S@@]21=O [Example 19AB] = 8.89

IN: Recorded pIC50 for Cc1ncc(C(=O)Nc2ccc(F)c([C@@]3(C)N=C(N)C(C)(C)[S@@]4(=O)=NCC[C@@H]34)c2)cn1 [Example 21AB] , please?
OUT: 6.04

IN: Recorded pIC50 for Cc1cc(C#N)cnc1C(=O)Nc1ccc(F)c([C@@]2(C)N=C(N)C(C)(C)[S@@]3(=O)=NCC[C@@H]23)c1 , please?
OUT: 10.05

IN: Recorded pIC50 for CC1(C)C(N)=N[C@](C)(c2cc(NC(=O)c3ccc(OCC(F)F)cn3)ccc2F)[C@@H]2CCN=[S@@]21=O [Example 10AB] , please?
OUT: 8.66

IN: Recorded pIC50 for CC1(C)C(N)=N[C@](C)(c2cc(NC(=O)c3ccc(C#N)cc3Cl)ccc2F)[C@@H]2CCN=[S@@]21=O , please?
OUT: 7.88

IN: Recorded pIC50 for CC1(C)C(N)=N[C@](C)(c2cc(NC(=O)c3ccc(Cl)cn3)ccc2F)[C@@H]2CCN=[S@@]21=O [Example 18AB] , please?
OUT: 9.70

IN: Recorded pIC50 for Cc1cc(C#N)ccc1C(=O)Nc1ccc(F)c([C@@]2(C)N=C(N)C(C)(C)[S@@]3(=O)=NCC[C@@H]23)c1 , please?
OUT: 7.91

IN: Recorded pIC50 for COc1ccc(C(=O)Nc2ccc(F)c([C@@]3(C)N=C(N)C(C)(C)[S@@]4(=O)=NCC[C@@H]34)c2)nc1 [Example 24AB] , please?
OUT: 9.15

IN: Recorded pIC50 for Cc1cc(C#N)cnc1C(=O)Nc1ccc(F)c([C@@]2(C)N=C(N)C(C)(C)[S@]3(=O)=NCC[C@H]23)c1 , please?
OUT: 8.44

IN: Recorded pIC50 for Cc1cc(OC(F)F)cnc1C(=O)Nc1ccc(F)c([C@@]2(C)N=C(N)C(C)(C)[S@@]3(=O)=NCC[C@@H]23)c1 [Example 11AB] , please?
OUT: 9.70

IN: Recorded pIC50 for CC1(C)C(N)=N[C@](C)(c2cc(NC(=O)c3ncc(OC(F)F)cc3Cl)ccc2F)[C@@H]2CCN=[S@@]21=O [Example 13AB] , please?
OUT: 9.52

====

System: Aβ40
Assay: Lowering of Aβ40 in brain of wild-type mice
Type: in vivo
Conditions: Mus musculus, po; female C57Bl/6J mice, 30 mg/kg per os, 4 h; brain Aβ40 as percentage of the vehicle group; read-out: Aβ40 (wt mice, brain)
readout: response vs control in vivo at 30 mg/kg (%)
The reply should contain only the number, in %.

# count of solved cases: 5
COc1cnc(C(=O)Nc2ccc(F)c([C@@]3(C)N=C(N)C(C)(C)[S@@]4(=O)=NCC[C@@H]34)c2)cn1 [Example 14AB] = 3
Cc1cc(C#N)cnc1C(=O)Nc1ccc(F)c([C@@]2(C)N=C(N)C(C)(C)[S@@]3(=O)=NCC[C@@H]23)c1 [Example 1AB] = 14
Cc1cc(C#N)cnc1C(=O)Nc1ccc(F)c([C@@]2(C)N=C(N)C(C)(C)[S@]3(=O)=NCC[C@H]23)c1 [Example 1BA] = 73
CC1(C)C(N)=N[C@](C)(c2cc(NC(=O)c3ncc(C#N)cc3Cl)ccc2F)[C@@H]2CCN=[S@@]21=O [Example 2AB] = 80
CC1(C)C(N)=N[C@](C)(c2cc(NC(=O)c3cnc(OC(F)F)cn3)ccc2F)[C@@H]2CCN=[S@@]21=O [Example 15AB] = 20

# ---- query molecule ----
IN: Recorded response vs control in vivo at 30 mg/kg for CCOc1cnc(C(=O)Nc2ccc(F)c([C@@]3(C)N=C(N)C(C)(C)[S@@]4(=O)=NCC[C@@H]34)c2)cn1 [Example 27AB] , please?
OUT: 9

====

# pIC50 listing for each entry below
Target: BACE1 (Homo sapiens)
Construct: endogenous in cells
Experiment: Cellular Aβ-lowering assay (Abeta 40 AlphaLISA, HEK293 APP cells)
Conditions: 18-20 hrs incubation, Aβ 40 in culture supernatants, read-out: BACE1 cell act. Aβ40 IC50
Expect pIC50 as a plain number equal to -log10 of the molar concentration.

# count of solved cases: 5
COc1cnc(C(=O)Nc2ccc(F)c([C@@]3(C)N=C(N)C(C)(C)[S@@]4(=O)=NCC[C@@H]34)c2)cn1 [Example 14AB] = 9.30
CC1(C)C(N)=N[C@](C)(c2cc(NC(=O)c3cnc(OCC(F)F)cn3)ccc2F)[C@@H]2CCN=[S@@]21=O [Example 7AB] = 9.40
CC1(C)C(N)=N[C@](C)(c2cc(NC(=O)c3cnc(OCC(F)(F)C(F)F)cn3)ccc2F)[C@@H]2CCN=[S@@]21=O [Example 22AB] = 9.70
CC1(C)C(N)=N[C@](C)(c2cc(NC(=O)c3cnc(OC(F)F)cn3)ccc2F)[C@@H]2CCN=[S@@]21=O [Example 15AB] = 9.70
CC1(C)C(N)=N[C@](C)(c2cc(NC(=O)c3nn(C(F)F)cc3Cl)ccc2F)[C@@H]2CCN=[S@@]21=O [Example 6AB] = 8.96

IN: Recorded pIC50 for CC1(C)C(N)=N[C@](C)(c2cc(NC(=O)c3ccc(C#N)cn3)ccc2F)[C@@H]2CCN=[S@@]21=O [Example 16AB] , please?
OUT: 9.70

IN: Recorded pIC50 for CC1(C)C(N)=N[C@](C)(c2cc(NC(=O)c3ccc(OC(F)F)cn3)ccc2F)[C@@H]2CCN=[S@@]21=O [Example 5AB] , please?
OUT: 9.22

IN: Recorded pIC50 for Cc1cnc(C(=O)Nc2ccc(F)c([C@@]3(C)N=C(N)C(C)(C)[S@@]4(=O)=NCC[C@@H]34)c2)c(C)c1 [Example 23AB] , please?
OUT: 9.70

IN: Recorded pIC50 for CC1(C)C(N)=N[C@](C)(c2cc(NC(=O)c3ccc(F)cn3)ccc2F)[C@@H]2CCN=[S@@]21=O [Example 17AB] , please?
OUT: 9.52

IN: Recorded pIC50 for Cc1ccc(C(=O)Nc2ccc(F)c([C@@]3(C)N=C(N)C(C)(C)[S@@]4(=O)=NCC[C@@H]34)c2)nc1 [Example 20AB] , please?
OUT: 9.40

IN: Recorded pIC50 for CC1(C)C(N)=N[C@](C)(c2cc(NC(=O)c3ccc(OCC(F)(F)C(F)F)cn3)ccc2F)[C@@H]2CCN=[S@@]21=O [Example 12AB] , please?
OUT: 8.85

IN: Recorded pIC50 for CCOc1ccc(C(=O)Nc2ccc(F)c([C@@]3(C)N=C(N)C(C)(C)[S@@]4(=O)=NCC[C@@H]34)c2)nc1 [Example 25AB] , please?
OUT: 9.30

IN: Recorded pIC50 for CC1(C)C(N)=N[C@](C)(c2cc(NC(=O)c3ncc(Cl)cc3Cl)ccc2F)[C@@H]2CCN=[S@@]21=O [Example 3AB] , please?
OUT: 9.00

====

Test system: Aβ40
Test: Lowering of Aβ40 in brain of wild-type mice
Assay type: in vivo
Conditions: Mus musculus, po; female C57Bl/6J mice, 30 mg/kg per os, 4 h; brain Aβ40 as percentage of the vehicle group; read-out: Aβ40 (wt mice, brain)
# response vs control in vivo at 30 mg/kg listing for each entry below
The reply should contain only the number, in %.

# count of solved cases: 6
CC1(C)C(N)=N[C@](C)(c2cc(NC(=O)c3ncc(Cl)cc3Cl)ccc2F)[C@@H]2CCN=[S@@]21=O [Example 3AB] = 49
CC1(C)C(N)=N[C@](C)(c2cc(NC(=O)c3ncc(OC(F)F)cc3Cl)ccc2F)[C@@H]2CCN=[S@@]21=O [Example 13AB] = 39
CC1(C)C(N)=N[C@](C)(c2cc(NC(=O)c3ccc(C#N)cc3Cl)ccc2F)[C@@H]2CCN=[S@@]21=O [Example 4AB] = 102
CCOc1ccc(C(=O)Nc2ccc(F)c([C@@]3(C)N=C(N)C(C)(C)[S@@]4(=O)=NCC[C@@H]34)c2)nc1 [Example 25AB] = 40
CC1(C)C(N)=N[C@](C)(c2cc(NC(=O)c3cnc(OCC(F)F)cn3)ccc2F)[C@@H]2CCN=[S@@]21=O [Example 7AB] = 42
COc1cnc(C(=O)Nc2ccc(F)c([C@@]3(C)N=C(N)C(C)(C)[S@@]4(=O)=NCC[C@@H]34)c2)c(C)c1 [Example 26AB] = 11

# ---- query compound ----
IN: Recorded response vs control in vivo at 30 mg/kg for CC1(C)C(N)=N[C@](C)(c2cc(NC(=O)c3ccc(F)cn3)ccc2F)[C@@H]2CCN=[S@@]21=O [Example 17AB] , please?
OUT: 40
